The binders listed here are annotated with their median log2 fold change.
Target: T1, TRAF2, Q12933
T1 chain: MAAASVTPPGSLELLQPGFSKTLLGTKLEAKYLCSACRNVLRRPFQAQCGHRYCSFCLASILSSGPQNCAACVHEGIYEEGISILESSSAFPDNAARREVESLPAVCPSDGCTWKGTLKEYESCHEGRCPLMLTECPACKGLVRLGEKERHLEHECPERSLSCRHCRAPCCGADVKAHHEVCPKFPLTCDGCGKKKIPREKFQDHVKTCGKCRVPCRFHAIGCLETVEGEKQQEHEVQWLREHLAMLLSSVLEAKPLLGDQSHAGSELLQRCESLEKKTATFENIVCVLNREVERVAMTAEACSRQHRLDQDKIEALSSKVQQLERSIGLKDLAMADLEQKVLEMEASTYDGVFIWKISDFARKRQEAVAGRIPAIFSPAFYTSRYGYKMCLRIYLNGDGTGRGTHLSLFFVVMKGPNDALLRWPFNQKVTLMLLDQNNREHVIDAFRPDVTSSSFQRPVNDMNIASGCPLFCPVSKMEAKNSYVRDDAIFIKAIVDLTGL
Assay: median log2 fold change of GCK-ALFA target abundance (FLAG IP / Myc IP barcode read proportion) (log2 ratio); each designed protein is fused to an ALFA-tag nanobody in HEK293 cells to bring the named protein to FLAG-tagged glucokinase (GCK); Myc marks an untargeted standard; higher = target protein stabilised (more abundant)
Conditions: target protein: 3xFLAG-MCP-GCK-ALFA reporter; HEK293 landing pad (RPLP)
Over roughly 1,800 sequences, “median log2 fold change of GCK-ALFA target abundance (FLAG IP / Myc IP barcode read proportion)” has its median near 0.14; the lowest 2% begin near -0.84. The sample as a whole holds a higher share of the lowest values than the screen did.

Binder	median log2 fold change
traf2_out_1_27_1022 (protein) SDEEFTRLIRETDRKIAEVDLEEQKKVVKEALKEAAKWGLGDARMLARTLVASQNDEERQEAIKEASLEAFKELGAPEEVIEELERVFNSIIERKKKVLA	0.214
traf2_out_18_117_1796 (protein) SELEKLQEEFEKTLKEFEEELEEAQRVATKLIEKYPKQLPEEAMDAIVEFGEVKRRVQQLVQEAKAHPNDVEKQKKLVEELKKLLEEMKEIKKKLEEILK	0.186
traf2_out_1_71_1752 (protein) SPEAEKAEKALEDMAKSIAEGMKTEEALERYLEAFRNHIKRVKALAKANKDDEAVKAGSIADLNLEAELLEKIAKYVDEESKKKLEELAKEAKKAAEEIK	-0.948
traf2_out_6_3_2531 (protein) DRESLLADARKVLENMGITTAAELQRLVEAEVRAIRQLISRPDVDRADLAGARSVIALARAMVEVAAETLPDFTPEQQARLQALLAEAEELVRRREEELA	-0.925
traf2_out_20_3_2118 (protein) EELEEELEKELEEALKLLKEAAKLADKKTAKKLEKLAKRLKESRKLSPSDRLVVVSEVRREVRRLRLEAEKKGDKKLAKVLDEAAEELNRAANLLMKIIE	0.107
traf2_out_6_3_2532 (protein) SHMSLLKDAKTVLENMGITTIEELKALVKAEVNAIKKLISRKDVDEADLAGARSVVALSRAMVEVAKETLPDFTEEDYEELNKLLEETEKLIKEREEKLK	-1.3
traf2_out_20_38_2029 (protein) SEEEEEERRLEELIKVANDSYDKYTKKFEKLVAEGKTVEEIAELAKKEVKEKLTAAGLEEEAKELIEDIDRALSSPNALRLIVRILARADALVHQKKINE	-1.3
traf2_out_13_95_1191 (protein) EEEKRKKYAERTNAIADELLDHADAKIAELEAATGDPELGAELRRVLDRGGVSALIHRIRELAKEDPAYREAYEAAAAELEAKRREAGRRVAEAEKEIEA	0.242
traf2_out_20_3_2084 (protein) KELEEEYKKHLEKAEKLLKEAAKLADPETAKKLEELIKRLKKSEELPYSDRLVVLSEVRREVLLLAQEAKAAGNEELAKILEEAAEEINRAMNLLMKMIE	0.118
